organism: Rattus norvegicus; experiment: DrugMatrix - Regimen: Daily Repeat; type: toxicity, organism-based, Sprague-Dawley; set-up: regimen Daily Repeat, gender Male, age 6-8 weeks; details: in vivo, po, 0 mg/kg, […], tissue Plasma, route oral GAVAGE, dose level Control, time 14 day, vehicle .5 % CMC
RECORDED ENDPOINT: PHOSPHORUS (mg/dL)
Give bare numbers, in mg/dL.

For every item in the list below, what is its measured PHOSPHORUS?
1. ClC(Br)Br
2. COc1ccc(C(=O)Nc2c(Cl)c[n+]([O-])cc2Cl)c2ccc(C(F)(F)F)nc12
3. ClC(Cl)Br

1: 9.97; 2: 11.55; 3: 9.97

Bench note: what PHOSPHORUS did CCOP(=S)(OCC)Oc1nc(Cl)c(Cl)cc1Cl show?
10.68
